The origin of these recorded values is ChEMBL document CHEMBL1130962.

measurement target: Alpha-1B adrenergic receptor (Homo sapiens)
Sequence (P35368 whole entry): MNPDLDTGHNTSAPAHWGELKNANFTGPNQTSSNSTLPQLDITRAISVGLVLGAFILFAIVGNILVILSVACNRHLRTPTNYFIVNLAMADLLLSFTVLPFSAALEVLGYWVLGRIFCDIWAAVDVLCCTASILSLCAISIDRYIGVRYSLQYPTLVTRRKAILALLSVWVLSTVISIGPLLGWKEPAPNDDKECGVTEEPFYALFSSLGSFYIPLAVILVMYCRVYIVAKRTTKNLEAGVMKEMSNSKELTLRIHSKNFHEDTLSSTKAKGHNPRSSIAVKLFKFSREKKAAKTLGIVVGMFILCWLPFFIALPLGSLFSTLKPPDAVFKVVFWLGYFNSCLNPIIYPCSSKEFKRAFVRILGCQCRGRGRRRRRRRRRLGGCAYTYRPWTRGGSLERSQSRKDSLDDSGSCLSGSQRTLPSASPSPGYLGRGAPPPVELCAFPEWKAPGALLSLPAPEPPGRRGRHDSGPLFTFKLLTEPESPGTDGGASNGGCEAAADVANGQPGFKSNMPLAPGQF
assay details: Binding affinity against human Alpha-1b adrenergic receptor was evaluated by cloned receptor binding assay
quantity name: Ki (nM)

INSERT INTO assay_data (compound, value_observed) VALUES
  ('CCOC(=O)[C@@H]1CN(CCCCN2C(=O)c3cc(Cl)ccc3S2(=O)=O)CC[C@@H]1c1ccccc1', 170),
  ('O=C1c2ccccc2S(=O)(=O)N1CCCCN1CCN(c2ncccn2)CC1', 220),
  ('CCOC(=O)C1CN(CCCCN2C(=O)c3cc(Cl)ccc3S2(=O)=O)CCC1c1ccccc1 (racemic)', 940),
  ('COC(=O)C1(c2ccccc2)CCN(CCCCN2C(=O)c3cc(Cl)ccc3S2(=O)=O)CC1', 2200);

---

Record: Ki reported on UniProt P42866.
Sequence (P42866 whole entry): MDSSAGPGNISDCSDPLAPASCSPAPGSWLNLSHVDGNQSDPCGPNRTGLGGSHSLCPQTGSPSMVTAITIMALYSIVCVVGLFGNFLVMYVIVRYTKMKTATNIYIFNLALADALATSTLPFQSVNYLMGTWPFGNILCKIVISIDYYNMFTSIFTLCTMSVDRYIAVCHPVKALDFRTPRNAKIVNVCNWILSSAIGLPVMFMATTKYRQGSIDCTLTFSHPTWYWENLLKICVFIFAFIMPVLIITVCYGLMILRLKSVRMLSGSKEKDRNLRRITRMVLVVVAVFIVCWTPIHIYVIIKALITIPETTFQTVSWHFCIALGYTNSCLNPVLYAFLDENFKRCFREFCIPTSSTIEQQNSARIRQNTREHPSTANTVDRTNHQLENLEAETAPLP
quantity name: Ki (µM)

INSERT INTO assay_data (compound, result_units, value_observed) VALUES
  ('CCOC(=O)[C@@H]1CNCC[C@@H]1c1ccccc1', 'µM', 7.6),
  ('CCOC(=O)C1CNCCC1c1ccccc1 (racemic)', 'µM', 24),
  ('CCOC(=O)[C@H]1CNCC[C@H]1c1ccccc1', 'µM', 12);

---

pKi: −log10 of the molar value.
Record: pKi reported on UniProt:P25100.
Sequence (P25100 whole entry): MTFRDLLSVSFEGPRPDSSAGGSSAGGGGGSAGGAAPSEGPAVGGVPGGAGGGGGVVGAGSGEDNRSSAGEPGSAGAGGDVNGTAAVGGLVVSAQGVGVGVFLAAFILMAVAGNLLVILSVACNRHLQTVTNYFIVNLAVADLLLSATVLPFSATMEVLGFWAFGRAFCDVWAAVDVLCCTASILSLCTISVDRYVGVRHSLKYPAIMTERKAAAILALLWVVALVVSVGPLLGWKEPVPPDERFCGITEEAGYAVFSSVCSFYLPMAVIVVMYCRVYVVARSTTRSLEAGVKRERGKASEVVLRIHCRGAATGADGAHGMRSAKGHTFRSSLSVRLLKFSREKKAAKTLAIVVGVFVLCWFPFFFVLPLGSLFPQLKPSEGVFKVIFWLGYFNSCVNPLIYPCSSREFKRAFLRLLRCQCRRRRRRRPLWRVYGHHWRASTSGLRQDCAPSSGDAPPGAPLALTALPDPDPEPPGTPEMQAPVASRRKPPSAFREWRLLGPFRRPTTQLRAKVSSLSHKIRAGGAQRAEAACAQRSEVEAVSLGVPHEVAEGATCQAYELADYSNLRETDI
quantity name: pKi

INSERT INTO results (molecule, quantity_name, value_observed) VALUES
  ('CCOC(=O)C1CN(CCCCN2C(=O)c3cc(Cl)ccc3S2(=O)=O)CCC1c1ccccc1 (racemic)', 'pKi', 5.74),
  ('CCOC(=O)[C@H]1CN(CCCCN2C(=O)c3cc(Cl)ccc3S2(=O)=O)CC[C@H]1c1ccccc1', 'pKi', 5.96),
  ('COC(=O)C1(c2ccccc2)CCN(CCCCN2C(=O)c3cc(Cl)ccc3S2(=O)=O)CC1', 'pKi', 5.70),
  ('O=C1c2ccccc2S(=O)(=O)N1CCCCN1CCN(c2ncccn2)CC1 [IPSAPIRONE]', 'pKi', 7.34);

---

measurement target: Alpha-1A adrenergic receptor (Homo sapiens)
Sequence (P35348 whole entry): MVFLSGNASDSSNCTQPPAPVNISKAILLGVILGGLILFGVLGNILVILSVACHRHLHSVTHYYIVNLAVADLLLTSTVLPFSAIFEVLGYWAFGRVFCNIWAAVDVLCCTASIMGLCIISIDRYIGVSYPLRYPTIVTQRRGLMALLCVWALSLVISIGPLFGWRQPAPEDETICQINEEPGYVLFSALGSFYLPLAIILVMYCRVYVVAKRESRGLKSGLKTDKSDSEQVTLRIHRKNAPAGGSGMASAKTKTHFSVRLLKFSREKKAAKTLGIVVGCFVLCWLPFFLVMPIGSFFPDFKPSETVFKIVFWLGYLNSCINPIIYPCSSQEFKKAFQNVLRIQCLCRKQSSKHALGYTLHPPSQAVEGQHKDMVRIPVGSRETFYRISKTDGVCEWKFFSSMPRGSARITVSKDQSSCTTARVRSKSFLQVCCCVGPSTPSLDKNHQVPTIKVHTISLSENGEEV
pKi: −log10 of the molar value.
pKi reference
quantity name: pKi

INSERT INTO measurements (compound, measurement_target, value_observed) VALUES
  ('CCOC(=O)[C@H]1CN(CCCCN2C(=O)c3cc(Cl)ccc3S2(=O)=O)CC[C@H]1c1ccccc1', 'Alpha-1A adrenergic receptor (Homo sapiens)', 7.01),
  ('CCOC(=O)[C@@H]1CN(CCCCN2C(=O)c3cc(Cl)ccc3S2(=O)=O)CC[C@@H]1c1ccccc1', 'Alpha-1A adrenergic receptor (Homo sapiens)', 9.29),
  ('CCOC(=O)C1CN(CCCCN2C(=O)c3cc(Cl)ccc3S2(=O)=O)CCC1c1ccccc1 (racemic)', 'Alpha-1A adrenergic receptor (Homo sapiens)', 8.52),
  ('COC(=O)C1(c2ccccc2)CCN(CCCCN2C(=O)c3cc(Cl)ccc3S2(=O)=O)CC1', 'Alpha-1A adrenergic receptor (Homo sapiens)', 7.36);
